target or test system: human ENT1 (Homo sapiens)
Construct: JAR cells expressing ENT1 were purchased from ATCC; host or cells: JAR cells
assay name: ENT1 binding assay (competition with Sahenta-DY647 on JAR cells)
condition info: competition with SAHENTA-DY647 binding; IC50 categorized; read-out: Binding Assay IC50
measured parameter: IC50

Sample answers from the record:
> print(dat)
                                   compound  recorded.result
1  C[C@H]1O[C@@H](n2cnc3c(NCc4cc(C(F)(F)F)ccc4F)ncnc32)[C@H](O)[C@@H]1O         > 0.5 µM
2  C[C@H]1O[C@@H](n2cnc3c(C(=O)N4CC(c5ccc([N+](=O)[O-])cc5)C4)ncnc32)[C@H](O)[C@@H]1O         > 0.5 µM
3  CCOC(=O)/C=C/[C@H]1O[C@@H](n2cnc3c(OCc4ccc([N+](=O)[O-])cc4)ncnc32)[C@H](O)[C@@H]1O   0.02 to 0.5 µM
4  Cc1cc(Cl)ccc1COc1ncnc2c1ncn2[C@@H]1O[C@H](C)[C@@H](O)[C@H]1O         > 0.5 µM
5  C[C@H]1O[C@@H](n2c(NC3CCC(O)CC3)nc3c(OCc4ccc([N+](=O)[O-])cc4)ncnc32)[C@H](O)[C@@H]1O (stereo partly shown)       < 0.001 µM

Recorded IC50 (compound C[C@H]1O[C@@H](n2cnc3c(OCc4ccc(Cl)cc4)ncnc32)[C@H](O)[C@@H]1O ): 0.02 to 0.5 µM

Record Cc1nccn1-c1ccc(COc2ncnc3c2ncn3[C@@H]2O[C@H](C)[C@@H](O)[C@H]2O)cc1 . Reported IC50: > 0.5 µM

====

target or test system: human ENT1 (Homo sapiens)
Construct: JAR cells expressing ENT1 were purchased from ATCC; host or cells: JAR cells
assay name: ENT1 binding assay (competition with Sahenta-DY647 on JAR cells)
condition info: competition with SAHENTA-DY647 binding; IC50 categorized; read-out: Binding Assay IC50
# maps each entry to its IC50

Guide cases for IC50, answers given:
> print(dat)
                         structure.notation  recorded.result
1  C[C@H]1O[C@@H](n2c(NC3CC(F)(F)C3)nc3c(OCc4ccc(C#N)cc4)ncnc32)[C@H](O)[C@@H]1O       1 to 20 nM
2  C[C@H]1O[C@@H](n2cnc3c(OCCc4ccc(OCF)cc4)ncnc32)[C@H](O)[C@@H]1O         > 500 nM
3  C[C@H]1O[C@@H](n2cnc3c(SCc4cscn4)ncnc32)[C@H](O)[C@@H]1O         > 500 nM

Moving on to another compound below.
Sure, the documented IC50 for C[C@H]1O[C@@H](n2c(NC3CCOCC3)nc3c(OCc4ccc(C#N)nc4)ncnc32)[C@H](O)[C@@H]1O is 1 to 20 nM

====

target or test system: human ENT1 (Homo sapiens)
Construct: JAR cells expressing ENT1 were purchased from ATCC; host or cells: JAR cells
Sequence (Q99808 1-456): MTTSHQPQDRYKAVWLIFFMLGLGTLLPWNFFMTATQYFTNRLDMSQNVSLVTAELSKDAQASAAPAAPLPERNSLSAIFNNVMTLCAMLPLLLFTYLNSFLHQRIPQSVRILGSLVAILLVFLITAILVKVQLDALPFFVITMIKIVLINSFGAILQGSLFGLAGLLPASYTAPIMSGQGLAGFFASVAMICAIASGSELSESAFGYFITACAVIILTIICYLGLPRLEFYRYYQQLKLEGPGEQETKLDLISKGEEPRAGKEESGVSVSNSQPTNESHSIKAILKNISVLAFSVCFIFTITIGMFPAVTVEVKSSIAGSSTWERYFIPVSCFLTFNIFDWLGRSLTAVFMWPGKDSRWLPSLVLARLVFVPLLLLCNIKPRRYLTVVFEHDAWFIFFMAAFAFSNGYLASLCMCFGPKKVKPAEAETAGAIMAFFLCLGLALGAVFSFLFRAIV
assay name: ENT1 binding assay (competition with Sahenta-DY647 on JAR cells)
condition info: competition with SAHENTA-DY647 binding; IC50 categorized; read-out: Binding Assay IC50
measured parameter: IC50

Worked cases, answers included:
> print(dat)
                                   compound      target.or.test.system  recorded.result
1  Cc1cc(COc2ncnc3c2nc(NC2CCCC2)n3[C@@H]2O[C@H](C)[C@@H](O)[C@H]2O)ccn1 [Compound 15]  human ENT1 (Homo sapiens)     20 to 500 nM
2  OCCOC[C@H]1O[C@@H](n2cnc3c(OCc4ccc(OC(F)(F)F)cc4)ncnc32)[C@H](O)[C@@H]1O [Compound 175]  human ENT1 (Homo sapiens)     20 to 500 nM

Per the record, C[C@H]1OC(n2cnc3c(COc4ccc(C#N)c(F)c4)ncnc32)[C@H](O)[C@@H]1O (stereo partly shown) [Compound 258] has IC50 of > 500 nM

C[C@H]1O[C@@H](n2cnc3c(SCc4ncccn4)ncnc32)[C@H](O)[C@@H]1O [Compound 394] yielded IC50 of > 500 nM

Per the records, this compound ( OC[C@@H]1C[C@@H](O)[C@H](n2cnc3c(OCc4ccc(OC(F)F)cc4)ncnc32)O1 [Compound 303] ) has IC50 equal to > 500 nM

Entry under test: C[C@H]1O[C@@H](n2c(N[C@H]3CC[C@](C)(O)CC3)nc3c(OCc4ccc(Cl)cc4)ncnc32)[C@H](O)[C@@H]1O [Compound 127] . Its IC50 was 20 to 500 nM

Lookup result for O=[N+]([O-])c1ccc(COc2ncnc3c2ncn3[C@@H]2O[C@H](COCCN3CCCC3)[C@@H](O)[C@H]2O)cc1 [Compound 240] ; measured IC50: > 500 nM

====

Below, each entry is listed alongside its reported IC50.
target or test system: human ENT1 (Homo sapiens)
Construct: JAR cells expressing ENT1 were purchased from ATCC; host or cells: JAR cells
assay name: ENT1 binding assay (competition with Sahenta-DY647 on JAR cells)
condition info: competition with SAHENTA-DY647 binding; IC50 categorized; read-out: Binding Assay IC50

Examples from the recorded data:
> print(dat)
                                   molecule  recorded.result
1  CCOc1ccc(CNC(=O)c2ncnc3c2ncn3[C@@H]2O[C@H](C)[C@@H](O)[C@H]2O)cc1 [Compound 350]         > 500 nM
2  C[C@H]1O[C@@H](n2c(NCc3ccc(C#N)nc3)nc3c(OCc4ccc(C#N)cc4)ncnc32)[C@H](O)[C@@H]1O [Compound 70]       1 to 20 nM
3  Cc1ccc(COc2ncnc3c2nc(NC2CCCC2)n3[C@@H]2O[C@H](C)[C@@H](O)[C@H]2O)cc1 [Compound 90]       1 to 20 nM
4  C[C@H]1O[C@@H](n2cnc3c(OCc4ccc5c(c4)OCC5)ncnc32)[C@H](O)[C@@H]1O [Compound 313]         > 500 nM
5  C[C@H]1O[C@@H](n2ccc3c(SCc4ccc([N+](=O)[O-])cc4)ncnc32)[C@H](O)[C@@H]1O [Compound 197]     20 to 500 nM

Item: COc1nc(OCc2ccc([N+](=O)[O-])cc2)c2ncn([C@@H]3O[C@H](C)[C@@H](O)[C@H]3O)c2n1 [Compound 283] | IC50: > 500 nM

Lab note: measured IC50 of C[C@H]1O[C@@H](n2cnc3c(OCc4c(F)cc(C#N)cc4F)ncnc32)[C@H](O)[C@@H]1O [Compound 269] was > 500 nM

Per the record, C[C@H]1O[C@@H](n2c(N[C@H]3CC[C@](C)(O)CC3)nc3c(OCc4ccc(OC(F)F)cc4)ncnc32)[C@H](O)[C@@H]1O [Compound 121] has IC50 of 1 to 20 nM

// sample CNC(=O)[C@H]1O[C@@H](n2cnc3c(OCc4ccc([N+](=O)[O-])cc4)ncnc32)[C@H](O)[C@@H]1O [Compound 279] , its IC50 was > 500 nM

====

target or test system: human ENT1 (Homo sapiens, UniProt Q99808)
Construct: JAR cells expressing ENT1 were purchased from ATCC; host or cells: JAR cells
Sequence (Q99808 1-456): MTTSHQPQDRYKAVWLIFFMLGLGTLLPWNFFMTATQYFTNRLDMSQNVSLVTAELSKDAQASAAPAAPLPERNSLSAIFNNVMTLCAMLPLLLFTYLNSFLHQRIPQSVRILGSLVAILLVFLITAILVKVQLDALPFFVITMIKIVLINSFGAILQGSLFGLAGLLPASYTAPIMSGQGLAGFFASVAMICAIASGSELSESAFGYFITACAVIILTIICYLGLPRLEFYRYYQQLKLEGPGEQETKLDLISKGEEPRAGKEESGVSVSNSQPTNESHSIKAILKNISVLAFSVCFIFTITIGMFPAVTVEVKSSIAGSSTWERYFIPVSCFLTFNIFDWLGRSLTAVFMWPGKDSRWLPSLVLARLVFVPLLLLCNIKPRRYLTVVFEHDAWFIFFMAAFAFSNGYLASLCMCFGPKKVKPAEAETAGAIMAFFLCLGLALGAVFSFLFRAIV
assay name: ENT1 binding assay (competition with Sahenta-DY647 on JAR cells)
condition info: competition with SAHENTA-DY647 binding; IC50 categorized; read-out: Binding Assay IC50
Experimental: Compounds of the present disclosure were assayed to show ability to bind to human ENT1. The assay is a competition between a compound of interest and Sahenta-DY647, an ENT1 inhibitor that emits fluorescence (Ex=630 nm, Em=670 nm). By measuring the fluorescence at the end of the assay, one can assess the binding potency of the compounds tested. […] The inhibitory effect of the test compound was expressed as a percentage of the inhibition of SAHENTA-DY647 binding.
pIC50: −log10 of the molar value.
measured parameter: pIC50

Here is how some compounds turned out for pIC50.
> print(dat)
                                   compound  recorded.result
1  C[C@H]1O[C@@H](n2c(NC3CCC(O)C3)nc3c(OCc4ccc(F)cc4)ncnc32)[C@H](O)[C@@H]1O (stereo partly shown)     7.70 to 9.00
2  C[C@H]1O[C@@H](n2cnc3c(NCc4ccc(S(C)(=O)=O)cc4)ncnc32)[C@H](O)[C@@H]1O           < 6.30
3  C[C@H]1O[C@@H](n2cnc3c(NCc4ccc(C(=O)N(C)C)cc4)ncnc32)[C@H](O)[C@@H]1O           < 6.30
4  NC[C@H]1O[C@@H](n2cnc3c(SCc4ccc([N+](=O)[O-])cc4)ncnc32)[C@H](O)[C@@H]1O           < 6.30
5  C[C@H]1O[C@@H](n2c(NCCCO)nc3c(N4CCc5ccc(C#N)cc5C4)ncnc32)[C@H](O)[C@@H]1O     7.70 to 9.00

For record C[C@H]1O[C@@H](n2cnc3c(OCCc4ccc(CF)cc4)ncnc32)[C@H](O)[C@@H]1O the listed pIC50 is < 6.30

For record C[C@H]1O[C@@H](n2c(NCCO)nc3c(N4CCc5ccc(C#N)cc5C4)ncnc32)[C@H](O)[C@@H]1O the listed pIC50 is 6.30 to 7.70
